- tested.on: T1, hu-IL-36γ (human IL-36γ, N-terminally truncated active form S18-D169) (human, UniProt Q9NZH8 18-169)
- T1 construct: Purification tag cleaved off; Biotinylated where captured; also called hu-IL-36g
- T1 sequence: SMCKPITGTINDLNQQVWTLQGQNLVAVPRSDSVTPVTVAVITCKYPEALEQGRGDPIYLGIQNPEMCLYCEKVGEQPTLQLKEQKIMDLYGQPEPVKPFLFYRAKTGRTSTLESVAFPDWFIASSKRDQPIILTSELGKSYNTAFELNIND
- protocol.summary: SPR (Biacore 8K), biotinylated hu-IL-36 captured on CAP chip, Fab injected, 37°C
quantity.measured: kon

get_value(item= mAb2.8 Fab (Fab, V domains shown, Recombinant Fab with 8xHis tag (Expi293F)) VH: ELQLQESGPGLVKPSETLSLTCTVSGGSISDSSYYWGWIRQPPGKGLEWIGSIYYTGETYYAPSLKSRVTISVDTSKNQFSLKLSSVTAADTAVYYCARLRYGVGVPRYFDPWGQGTLVTVSS VL: ESVLTQPPSVSGAPGQRVTISCTGSSSNIGAHYDVHWYQQLPGTAPKLLIYGNDNRPSGVPDRFSGSKSGTSASLAITGLQAEDEADYYCQSYDYSLSGYVFGGGTKLTVL , readout=kon) returns 1.8e+06 M⁻¹ s⁻¹

Data provenance is patent US20230235040A1.
